- measured.target: Bcl-xL, Q07817
- Sequence (Q07817 1-209): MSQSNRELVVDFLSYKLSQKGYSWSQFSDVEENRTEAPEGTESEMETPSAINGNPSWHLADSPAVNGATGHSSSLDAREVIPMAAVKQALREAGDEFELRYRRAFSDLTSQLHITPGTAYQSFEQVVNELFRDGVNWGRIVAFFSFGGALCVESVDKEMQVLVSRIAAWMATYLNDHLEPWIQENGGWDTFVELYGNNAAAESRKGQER
- measurement.notes: peptide SPOT array, c-Myc-tagged receptor at 1 uM or 100 nM, anti-c-Myc-Cy3
experimental.readout: SPOT signal as a fraction of Bim BH3's signal on the same receptor and array
Please state the value as a number alone, without comment.

Answered examples (3):
IN: Sample SAGVPVRGVEDQAAAERFARCFGRTD [TIGD7] — what was its SPOT signal as a fraction of Bim BH3's signal on the same receptor and array?
OUT: 0.02

IN: Sample KLALEQRCREDRARGRRLEETLPRRI [KIF19] — what was its SPOT signal as a fraction of Bim BH3's signal on the same receptor and array?
OUT: 0.83

IN: Sample HPRKESQVRQLAWVGDGVWVSIRLDS [SPAG9] — what was its SPOT signal as a fraction of Bim BH3's signal on the same receptor and array?
OUT: 0.02

Read the next record carefully.
IN: Sample VILADPDGHEICFVGDEAFRELSKMD [GLOD4] — what was its SPOT signal as a fraction of Bim BH3's signal on the same receptor and array?
OUT: 0.02
